Reported inhibition values are given for each entry in this list.
Target: Rac GTPase-activating protein 1 (Homo sapiens)
Experiment: inhibition of MgcRacGAP-stimulated Rac1 GTP hydrolysis – biochemical, inorganic phosphate detection, orthogonal assay, confirmation (AID 652142)
Conditions: MgcRacGAP/Rac1F28L GTP hydrolysis, Biomol green phosphate; stronger effect = higher value
The campaign covered roughly 2,400 compounds. Fewer than 10 were called active. These entries were drawn from the full list.
reported_endpoint: inhibition

compound=CCOc1ccc2c(ccc(/C=C/c3cc(C)c4cccnc4c3O)[n+]2C)c1 tested_target="Rac GTPase-activating protein 1 (Homo sapiens)" reported_endpoint=inhibition reported="66.1% (inactive)"
compound=O=C(/C=C/Nc1ccc(Nc2ccccc2)cc1)c1cccs1 tested_target="Rac GTPase-activating protein 1 (Homo sapiens)" reported_endpoint=inhibition reported="19.5% (inactive)"
compound=Cc1ccc(CN2CCN(Cc3ccccc3C(F)(F)F)CC2)cc1 tested_target="Rac GTPase-activating protein 1 (Homo sapiens)" reported_endpoint=inhibition reported="17.2% (inactive)"
compound=Nc1ccc(N2CCCC2)c(S(=O)(=O)Nc2cccc(C(F)(F)F)c2)c1 tested_target="Rac GTPase-activating protein 1 (Homo sapiens)" reported_endpoint=inhibition reported="29.9% (inactive)"
compound=Oc1ccc(/C=C/c2ccc3ccccc3n2)cc1 tested_target="Rac GTPase-activating protein 1 (Homo sapiens)" reported_endpoint=inhibition reported="35.5% (inactive)"
compound=CCOc1cc(-c2nc3ccccc3s2)ccc1O tested_target="Rac GTPase-activating protein 1 (Homo sapiens)" reported_endpoint=inhibition reported="30.1% (inactive)"
compound="Cc1cc(C)n(CC(O)CN2c3ccccc3Sc3ccccc32)n1 (stereo unspecified)" tested_target="Rac GTPase-activating protein 1 (Homo sapiens)" reported_endpoint=inhibition reported="32.2% (inactive)"
compound=CCOC(=O)c1[nH]c2ccc(F)cc2c1NC(=O)c1ccccc1C(=O)O tested_target="Rac GTPase-activating protein 1 (Homo sapiens)" reported_endpoint=inhibition reported="22.6% (inactive)"
compound=CN(c1ccc(O)cc1)c1nc(-c2ccccc2)cs1 tested_target="Rac GTPase-activating protein 1 (Homo sapiens)" reported_endpoint=inhibition reported="23.3% (inactive)"
compound=CC(=O)N1CCN(c2ccc(Nc3ncnc4c3oc3ccccc34)cc2)CC1 tested_target="Rac GTPase-activating protein 1 (Homo sapiens)" reported_endpoint=inhibition reported="8.13% (inactive)"
compound=CN(C)CCNc1ccc(CO)c2sc3ccc(O)cc3c(=O)c12 tested_target="Rac GTPase-activating protein 1 (Homo sapiens)" reported_endpoint=inhibition reported="12.6% (inactive)"
